Molecular target: NAD-dependent protein deacetylase sirtuin-2 (Homo sapiens) (UniProt Q8IXJ6)
Sequence (Q8IXJ6 whole entry): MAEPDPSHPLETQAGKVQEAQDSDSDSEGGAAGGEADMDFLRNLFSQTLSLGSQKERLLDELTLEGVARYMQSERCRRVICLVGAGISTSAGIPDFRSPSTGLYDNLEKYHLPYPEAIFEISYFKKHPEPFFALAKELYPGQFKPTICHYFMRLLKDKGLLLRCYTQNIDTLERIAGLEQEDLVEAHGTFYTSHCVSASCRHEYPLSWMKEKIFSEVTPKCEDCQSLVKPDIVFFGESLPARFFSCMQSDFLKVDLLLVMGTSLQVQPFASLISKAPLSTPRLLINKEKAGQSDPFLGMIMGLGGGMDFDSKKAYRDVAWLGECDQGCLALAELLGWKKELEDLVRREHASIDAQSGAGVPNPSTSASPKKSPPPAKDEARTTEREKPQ
Assay: Inhibition of human recombinant GST-tagged SIRT2 using KI179 as substrate at 50 uM preincubated for 5 mins followed by enzyme addition measured after 1 hr by fluorescence assay relative to control

molecule	inhibition (%)
CC(=S)NCCCC[C@H](NC(=O)CN(C)C)C(=O)Nc1ccccc1	18
CC(=S)NCCCC[C@H](NC(=O)[C@@H]1C[C@@H](O)CN1C(=O)OCc1ccccc1)C(=O)Nc1ccccc1	54
CC(=S)NCCCC[C@H](NC(=O)CCCCCc1ccccc1)C(=O)NCC(=O)c1ccccc1	83
CC(=S)NCCCC[C@H](NC(=O)OCc1ccccc1)C(=O)NCC(=O)c1ccccc1	94
CC(=S)NCCCC[C@H](NC(=O)OCc1ccccc1)C(=O)NCC(O)c1ccccc1 (some centres undefined)	54
CC(=S)NCCCC[C@H](NC(=O)CCc1ccccc1)C(=O)Nc1cccnc1	21
CC(=S)NCCCC[C@H](NC(=O)OC(C)(C)C)C(=O)NCC(=O)c1ccccc1	87
CC(=S)NCCCC[C@H](NC(=O)CCCc1ccccc1)C(=O)NCC(=O)c1ccccc1	76
CC(=S)NCCCC[C@H](NC(=O)OCc1ccccc1)C(=O)NCC(N)=O	72

----------
Listed compounds paired with reported inhibition
Biological target: NAD-dependent protein deacetylase sirtuin-2 (Homo sapiens)
Experiment: Inhibition of human recombinant GST-tagged SIRT2 using KI179 as substrate at 50 uM preincubated for 5 mins followed by enzyme addition measured after 1 hr by fluorescence assay relative to control
readout-name: inhibition (%)

chemical-structure	value-reported
CC(=S)NCCCC[C@H](NC(=O)[C@@H]1CCCN1C(=O)OC(C)(C)C)C(=O)NCC(=O)c1ccccc1	95
CC(=S)NCCCC[C@H](NC(=O)[C@@H]1CCCN1C(=O)OC(C)(C)C)C(=O)Nc1ccccc1	44
CC(=S)NCCCC[C@H](NC(=O)CCCCCc1ccccc1)C(=O)NCc1ccccc1	71
CC(=S)NCCCC[C@H](NC(=O)OCc1ccccc1)C(=O)Nc1ccccc1	81
CC(=S)NCCCC[C@H](NC(=O)OCc1ccccc1)C(=O)N[C@@H](C)C(N)=O	86
CC(=S)NCCCC[C@H](NC(=O)CCc1ccccc1F)C(=O)Nc1cccnc1	74
CC(=S)NCCCC[C@H](NC(=O)[C@@H]1CCCN1)C(=O)Nc1ccccc1	13
CC(=S)NCCCC[C@H](NC(=O)CCc1ccccc1)C(=O)NCC(=O)c1ccccc1	65
CC(=S)NCCCC[C@H](NC(=O)CCc1cccnc1)C(=O)Nc1ccccc1	39
CC(=S)NCCCC[C@H](NC(=O)CCc1cccnc1)C(=O)NCC(=O)c1ccccc1	58
COc1ccc(C(=O)CNC(=O)[C@H](CCCCNC(C)=S)NC(=O)OCc2ccccc2)cc1	97
CC(=S)NCCCC[C@H](NC(=O)OCc1ccccc1)C(=O)NCCc1c[nH]c2ccc(OCc3ccccc3)cc12	79
CC(=S)NCCCC[C@H](NC(=O)[C@@H]1C[C@@H](O)CN1C(=O)OCc1ccccc1)C(=O)NCc1ccccc1	87
CC(=S)NCCCC[C@H](NC(=O)C[C@@H]1NC(=O)[C@H](Cc2ccccc2)NC1=O)C(=O)NCC(=O)c1ccccc1	73
CC(=S)NCCCC[C@H](NC(=O)OCc1ccccc1)C(=O)NCCc1c[nH]c2ccccc12	61
COc1ccc2[nH]cc(CCNC(=O)[C@H](CCCCNC(C)=S)NC(=O)OCc3ccccc3)c2c1	66
CC(=S)NCCCC[C@H](NC(=O)CCCCCCc1ccccc1)C(=O)NCc1ccccc1	74
CC(=S)NCCCC[C@H](NC(=O)OC(C)(C)C)C(=O)NCCc1cccnc1	28

----------
Biological target: NAD-dependent protein deacetylase sirtuin-1 (Homo sapiens);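 note: recombinant GST-tagged human SIRT1 enzyme assay with KI177 substrate, fluorescence read 1 h after enzyme addition, inhibition expressed relative to control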
Conditions: at 50 µM
Description: Inhibition of human recombinant GST-tagged SIRT1 using KI177 as substrate at 50 uM preincubated for 5 mins followed by enzyme addition measured after 1 hr by fluorescence assay relative to control
Listed molecules paired with reported inhibition

molecule	system-name	inhibition / %
CC(=S)NCCCC[C@H](NC(=O)CCCCCCc1ccccc1)C(=O)NCc1ccccc1	NAD-dependent protein deacetylase sirtuin-1 (Homo sapiens)	99
CC(=S)NCCCC[C@H](NC(=O)[C@@H]1C[C@@H](O)CN1C(=O)OCc1ccccc1)C(=O)NCc1ccccc1	NAD-dependent protein deacetylase sirtuin-1 (Homo sapiens)	97
CC(=S)NCCCC[C@H](NC(=O)CCc1ccccc1)C(=O)NCC(=O)c1ccccc1	NAD-dependent protein deacetylase sirtuin-1 (Homo sapiens)	96
CC(=S)NCCCC[C@H](NC(=O)OCc1ccccc1)C(=O)NCC(O)c1ccccc1 (stereo partly drawn)	NAD-dependent protein deacetylase sirtuin-1 (Homo sapiens)	77
CC(=S)NCCCC[C@H](NC(=O)OCc1ccccc1)C(=O)N[C@@H](C)C(N)=O	NAD-dependent protein deacetylase sirtuin-1 (Homo sapiens)	96
CC(=S)NCCCC[C@H](NC(=O)OCc1ccccc1)C(=O)NCC(N)=O	NAD-dependent protein deacetylase sirtuin-1 (Homo sapiens)	91
CC(=S)NCCCC[C@H](NC(=O)[C@@H]1CCCN1C(=O)OC(C)(C)C)C(=O)NCC(=O)c1ccccc1	NAD-dependent protein deacetylase sirtuin-1 (Homo sapiens)	97
CC(=S)NCCCC[C@H](NC(=O)[C@@H]1CCCN1C(=O)OC(C)(C)C)C(=O)NCCc1cccnc1	NAD-dependent protein deacetylase sirtuin-1 (Homo sapiens)	66

----------
Listed molecules paired with reported IC50
Biological target: UniProt Q9NTG7
Test: Inhibition of human recombinant His-tagged SIRT3 using KI179 as substrate preincubated for 5 mins followed by enzyme addition measured after 1 hr by fluorescence assay

chemical-structure	IC50 (µM)
CC(=S)NCCCC[C@H](NC(=O)[C@@H]1C[C@@H](O)CN1C(=O)OCc1ccccc1)C(=O)NCC(=O)c1ccccc1	3.89
COc1ccc(C(=O)CNC(=O)[C@H](CCCCNC(C)=S)NC(=O)OCc2ccccc2)cc1	8.35

----------
Target: NAD-dependent protein deacetylase sirtuin-3, mitochondrial (Homo sapiens) (UniProt Q9NTG7)
Sequence (Q9NTG7 whole entry): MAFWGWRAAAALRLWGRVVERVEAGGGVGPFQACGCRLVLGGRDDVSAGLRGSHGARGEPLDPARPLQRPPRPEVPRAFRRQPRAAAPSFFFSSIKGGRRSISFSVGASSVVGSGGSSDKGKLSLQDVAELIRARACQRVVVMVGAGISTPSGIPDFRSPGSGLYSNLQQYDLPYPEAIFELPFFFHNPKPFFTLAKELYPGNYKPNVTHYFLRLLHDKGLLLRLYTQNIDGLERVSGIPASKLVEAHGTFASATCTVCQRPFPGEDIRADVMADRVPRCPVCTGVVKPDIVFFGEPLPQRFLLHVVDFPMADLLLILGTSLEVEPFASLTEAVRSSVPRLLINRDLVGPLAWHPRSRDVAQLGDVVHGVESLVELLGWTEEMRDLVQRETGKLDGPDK
Settings: at 50 µM
Description: Inhibition of human recombinant His-tagged SIRT3 using KI179 as substrate at 50 uM preincubated for 5 mins followed by enzyme addition measured after 1 hr by fluorescence assay relative to control
Listed molecules paired with reported inhibition

molecule	system-name	inhibition
CC(=S)NCCCC[C@H](NC(=O)OCc1ccccc1)C(=O)Nc1ccccc1	NAD-dependent protein deacetylase sirtuin-3, mitochondrial (Homo sapiens) (UniProt Q9NTG7)	62%
CC(=S)NCCCC[C@H](NC(=O)CCCCCc1ccccc1)C(=O)NCc1ccccc1	NAD-dependent protein deacetylase sirtuin-3, mitochondrial (Homo sapiens) (UniProt Q9NTG7)	84%
CC(=S)NCCCC[C@H](NC(=O)C[C@@H]1NC(=O)[C@H](Cc2ccccc2)NC1=O)C(=O)NCC(=O)c1ccccc1	NAD-dependent protein deacetylase sirtuin-3, mitochondrial (Homo sapiens) (UniProt Q9NTG7)	61%
CC(=S)NCCCC[C@H](NC(=O)CCc1ccccc1)C(=O)NCC(=O)c1ccccc1	NAD-dependent protein deacetylase sirtuin-3, mitochondrial (Homo sapiens) (UniProt Q9NTG7)	68%
CC(=S)NCCCC[C@H](NC(=O)CCc1ccccc1F)C(=O)Nc1cccnc1	NAD-dependent protein deacetylase sirtuin-3, mitochondrial (Homo sapiens) (UniProt Q9NTG7)	72%
CC(=S)NCCCC[C@H](NC(=O)CCCCCc1ccccc1)C(=O)NCC(=O)c1ccccc1	NAD-dependent protein deacetylase sirtuin-3, mitochondrial (Homo sapiens) (UniProt Q9NTG7)	82%
CC(=S)NCCCC[C@H](NC(=O)CCc1cccnc1)C(=O)NCC(=O)c1ccccc1	NAD-dependent protein deacetylase sirtuin-3, mitochondrial (Homo sapiens) (UniProt Q9NTG7)	62%
CC(=S)NCCCC[C@H](NC(=O)OCc1ccccc1)C(=O)NCCc1c[nH]c2ccccc12	NAD-dependent protein deacetylase sirtuin-3, mitochondrial (Homo sapiens) (UniProt Q9NTG7)	46%
CC(=S)NCCCC[C@H](NC(=O)[C@@H]1CCCN1C(=O)OC(C)(C)C)C(=O)NCC(=O)c1ccccc1	NAD-dependent protein deacetylase sirtuin-3, mitochondrial (Homo sapiens) (UniProt Q9NTG7)	76%
COc1ccc(C(=O)CNC(=O)[C@H](CCCCNC(C)=S)NC(=O)OCc2ccccc2)cc1	NAD-dependent protein deacetylase sirtuin-3, mitochondrial (Homo sapiens) (UniProt Q9NTG7)	82%
CC(=S)NCCCC[C@H](NC(=O)OCc1ccccc1)C(=O)NCC(N)=O	NAD-dependent protein deacetylase sirtuin-3, mitochondrial (Homo sapiens) (UniProt Q9NTG7)	77%
CC(=S)NCCCC[C@H](NC(=O)OC(C)(C)C)C(=O)NCCc1cccnc1	NAD-dependent protein deacetylase sirtuin-3, mitochondrial (Homo sapiens) (UniProt Q9NTG7)	24%
CC(=S)NCCCC[C@H](NC(=O)OCc1ccccc1)C(=O)N[C@@H](C)C(N)=O	NAD-dependent protein deacetylase sirtuin-3, mitochondrial (Homo sapiens) (UniProt Q9NTG7)	85%
CC(=S)NCCCC[C@H](NC(=O)CCCc1ccccc1)C(=O)NCC(=O)c1ccccc1	NAD-dependent protein deacetylase sirtuin-3, mitochondrial (Homo sapiens) (UniProt Q9NTG7)	72%
CC(=S)NCCCC[C@H](NC(=O)[C@@H]1CCCN1C(=O)OC(C)(C)C)C(=O)NCCc1cccnc1	NAD-dependent protein deacetylase sirtuin-3, mitochondrial (Homo sapiens) (UniProt Q9NTG7)	68%
CC(=S)NCCCC[C@H](NC(=O)OCc1ccccc1)C(=O)NCCc1c[nH]c2ccc(OCc3ccccc3)cc12	NAD-dependent protein deacetylase sirtuin-3, mitochondrial (Homo sapiens) (UniProt Q9NTG7)	68%
CC(=S)NCCCC[C@H](NC(=O)OC(C)(C)C)C(=O)NCC(=O)c1ccccc1	NAD-dependent protein deacetylase sirtuin-3, mitochondrial (Homo sapiens) (UniProt Q9NTG7)	63%
CC(=S)NCCCC[C@H](NC(=O)OCc1ccccc1)C(=O)NCc1ccccc1	NAD-dependent protein deacetylase sirtuin-3, mitochondrial (Homo sapiens) (UniProt Q9NTG7)	71%
CC(=S)NCCCC[C@H](NC(=O)OCc1ccccc1)C(=O)NCCc1ccccc1	NAD-dependent protein deacetylase sirtuin-3, mitochondrial (Homo sapiens) (UniProt Q9NTG7)	41%
CC(=S)NCCCC[C@H](NC(=O)CCc1cccnc1)C(=O)Nc1ccccc1	NAD-dependent protein deacetylase sirtuin-3, mitochondrial (Homo sapiens) (UniProt Q9NTG7)	44%
CC(=S)NCCCC[C@H](NC(=O)[C@@H]1CCCN1C(=O)OC(C)(C)C)C(=O)Nc1ccccc1	NAD-dependent protein deacetylase sirtuin-3, mitochondrial (Homo sapiens) (UniProt Q9NTG7)	45%
CC(=S)NCCCC[C@H](NC(=O)CN(C)C)C(=O)Nc1ccccc1	NAD-dependent protein deacetylase sirtuin-3, mitochondrial (Homo sapiens) (UniProt Q9NTG7)	16%
CC(=S)NCCCC[C@H](NC(=O)OCc1ccccc1)C(=O)NCC(O)c1ccccc1 (stereo partly specified)	NAD-dependent protein deacetylase sirtuin-3, mitochondrial (Homo sapiens) (UniProt Q9NTG7)	45%
CC(=S)NCCCC[C@H](NC(=O)[C@@H]1CCCN1)C(=O)Nc1ccccc1	NAD-dependent protein deacetylase sirtuin-3, mitochondrial (Homo sapiens) (UniProt Q9NTG7)	19%
CC(=S)NCCCC[C@H](NC(=O)OCc1ccccc1)C(=O)Nc1cccnc1	NAD-dependent protein deacetylase sirtuin-3, mitochondrial (Homo sapiens) (UniProt Q9NTG7)	59%
CC(=S)NCCCC[C@H](NC(=O)[C@@H]1C[C@@H](O)CN1C(=O)OCc1ccccc1)C(=O)Nc1ccccc1	NAD-dependent protein deacetylase sirtuin-3, mitochondrial (Homo sapiens) (UniProt Q9NTG7)	69%
CC(=S)NCCCC[C@H](NC(=O)[C@@H]1C[C@@H](O)CN1C(=O)OCc1ccccc1)C(=O)NCc1ccccc1	NAD-dependent protein deacetylase sirtuin-3, mitochondrial (Homo sapiens) (UniProt Q9NTG7)	93%
CC(=S)NCCCC[C@H](NC(=O)CCCCCCc1ccccc1)C(=O)NCc1ccccc1	NAD-dependent protein deacetylase sirtuin-3, mitochondrial (Homo sapiens) (UniProt Q9NTG7)	87%
CC(=S)NCCCC[C@H](NC(=O)CCc1ccccc1)C(=O)Nc1cccnc1	NAD-dependent protein deacetylase sirtuin-3, mitochondrial (Homo sapiens) (UniProt Q9NTG7)	39%
CC(=S)NCCCC[C@H](NC(=O)[C@@H]1C[C@@H](O)CN1C(=O)OCc1ccccc1)C(=O)NCC(=O)c1ccccc1	NAD-dependent protein deacetylase sirtuin-3, mitochondrial (Homo sapiens) (UniProt Q9NTG7)	90%
CC(=S)NCCCC[C@H](NC(=O)OCc1ccccc1)C(=O)NCC(=O)c1ccccc1	NAD-dependent protein deacetylase sirtuin-3, mitochondrial (Homo sapiens) (UniProt Q9NTG7)	74%

Source listed as ChEMBL document CHEMBL2417552.
